The measured values listed here are drawn from ChEMBL document CHEMBL3988442.

Organism: Homo sapiens
Test protocol: To identify inhibition of the IFN signalling (Jak-Stat) pathway via expression of an eGFP reporter gene under the control of an IFN-stimulated response element (ISRE) containing MxA promoter.
Format: functional
Set-up: scale not given: direction of the effect not stated beside the values
Condition parameters: 30 µM
Give Percent Effect for every item shown.
Field: numeric (%). Do not append units.

query: Returns the measured Percent Effect for the input compound. Input: CCN(CC)CC1CN(CCc2ccccc2)Cc2nccn2C1 (stereo unspecified)
result: 2.5

query: Also, `Cc1ccccc1CSc1nc(N)cc(N2CC[C@@H](O)C2)n1` please.
result: 28.7

query: Also, Cc1ncc(CN(C)CC2CCCN2c2cccnn2)s1 (stereo unspecified) please.
result: 0.297

query: Also, `O=C([C@H]1C[C@H]2OCC[C@H]2N(C(=O)C2CCOCC2)C1)N1CCCCO1` please.
result: -17.9

query: Also, `CC(=O)N1CCC[C@H]1C(=O)NCCOc1cccc(Cl)c1` please.
result: 12.4

query: Also, `COc1ncccc1CN1CCn2c(Cn3cncn3)cnc2C1` please.
result: -1.48

query: Also, `Cc1nc(N2CCOCC2)nc2c1CN(C(=O)Cc1ccccn1)CC2` please.
result: -4.9

query: Also, Cc1nc(C)n(CC2CCCN2CCc2cccs2)n1 (stereo unspecified) please.
result: 10.2

query: Also, O=C1N(Cc2cccc(F)c2F)CCCC1(O)CNC1CCCC1 (stereo unspecified) please.
result: 4.41

query: Also, CC(NC(=O)CNCCn1cccn1)c1ccc2c(c1)OCCO2 (stereo unspecified) please.
result: -0.448

query: Also, `Cc1n[nH]c(C)c1NC(=O)CN1CCc2c(nc(C3CC3)n2C)C1` please.
result: 37.3

query: Also, COc1ccc(F)cc1C(C(=O)O)N1CCSCC1 (stereo unspecified) please.
result: -10

query: Also, Cc1cnc2n(c1=O)CC(C(=O)Nc1cccc3cccnc13)CS2 (stereo unspecified) please.
result: 5.24

query: Also, `O=c1nc(SCc2ccncc2)c2c(n1CCO)CCCC2` please.
result: 19.8

query: Also, `O=C(CCc1nccs1)N1CCN(c2ccccc2F)CC1` please.
result: 5.18

query: Also, O=C(c1ccccn1)N1CCCC(c2nccn2CC2CCC2)C1 (stereo unspecified) please.
result: 7.95

query: Also, CC(COc1ccc(F)cc1F)NC(=O)NCCN1CCOCC1 (stereo unspecified) please.
result: -26.7

query: Also, `Cc1cnn(CCNCC(=O)NCc2ccccc2)c1` please.
result: -25

query: Also, `Cc1cnccc1N1CCCN(C(=O)CCCc2cn[nH]c2)CC1` please.
result: 4.4

query: Also, CC1CCCN(C(=O)c2csc(S(N)(=O)=O)c2)CC1 (stereo unspecified) please.
result: -3.67

query: Also, `COCC(=O)NCCn1ccc2c(OC)cccc21` please.
result: 19.7

* * *

Give Percent Effect for every item shown.
Tgt: AMP-activated protein kinase, AMPK (Homo sapiens) (UniProt P54646+O43741+P54619+Q9UGJ0+Q9Y478+Q13131+Q9UGI9)
Test protocol: AMP-dependent Kinase enzyme assay. An in vitro enzyme assay that detects ADP turnover that is directly proportional to AMPK activity. This uses naive AMPK that is activated during the assay with MK-8722
Type: functional
Design: scale not given: direction of the effect not stated beside the values
Condition parameters: 30 µM
Field: numeric (%). Do not append units.

query: Returns the measured Percent Effect for the input molecule. Input: CN1CCN(Cc2cccnc2)C2(CCN(c3ncc(F)cn3)C2)C1=O (stereo not drawn)
result: 2.79

query: Also, COCCN1CCN(C(C)C(=O)Nc2ccnn2C(C)C)CC1 (stereo not drawn) please.
result: 2.76

query: Also, COCC1CCN(C(=O)c2cccc(S(=O)(=O)NCC3(C)COC3)c2)C1 (stereo not drawn) please.
result: 0.667

query: Also, `O=C(Nc1cc(C(F)(F)F)c[nH]c1=O)N1CCCSCC1` please.
result: 1.88

query: Also, COc1ccccc1C(O)CNC(=O)Nc1ncccc1C (stereo not drawn) please.
result: 3.4

query: Also, `CN(C)c1cc(C(=O)NCCc2nnc(-c3ccco3)[nH]2)ccn1` please.
result: 0.765

query: Also, `O=C(CCOc1ccccc1)N1CCC(Nc2cccnn2)CC1` please.
result: -7.1

query: Also, `Cn1cnc(S(=O)(=O)N2CCN(Cc3ccco3)CC2)c1Cl` please.
result: -1.11

query: Also, `CC(=O)Nc1cccc(OCCNC(=O)N(C)Cc2ccco2)c1` please.
result: 7.27

query: Also, Cc1nc(C)n(CC2CCCN(Cc3nc(C)c(C)o3)C2)n1 (stereo not drawn) please.
result: -13.9

query: Also, `CNC(=O)[C@H]1CO[C@H]2CCN(Cc3ccc4ccccc4n3)C[C@H]2C1` please.
result: 7.95

query: Also, `Cc1ccc(NCc2cncc3c2CCN(C(=O)C2CC=CC2)C3)nn1` please.
result: -0.665

query: Also, `CC(C)CN1CCC(C(=O)Nc2cc(C(F)(F)F)c[nH]c2=O)CC1` please.
result: 4.55

query: Also, `CN(Cc1ccsc1)C(=O)CS(=O)(=O)Cc1ccc(Cl)c(Cl)c1` please.
result: 10.5

query: Also, `Cc1occc1C(=O)N1CCC2(CCN(Cc3nccs3)C2)CC1` please.
result: 0.489

query: Also, `N#Cc1ccc(C(=O)N2CCC3(CC2)C(=O)Nc2ccccc23)cn1` please.
result: 0.0753

query: Also, CC(C)c1nc(C2CCCN2CCc2ccncc2)no1 (stereo not drawn) please.
result: 6.93

query: Also, Cc1ccccc1CN1CCC(NCC2CNc3ccnn3C2)CC1 (stereo not drawn) please.
result: -17.1

query: Also, `CC(C)OCC(=O)N1CCCN(Cc2ccc(C#N)cc2)CC1` please.
result: 4.09

query: Also, `CCOc1ccc(NC(=O)c2cnc(N3CCCC3)nc2C)cc1` please.
result: -3.01

query: Also, `CC(C)c1ccc(OCCC(=O)N2CCC(CC(N)=O)CC2)cc1` please.
result: 5.06

query: Also, `O=C(c1cccc(S(=O)(=O)NCCCc2ncc[nH]2)c1)N1CCOCC1` please.
result: -0.693

query: Also, COc1ccc(C2SC(C)=Nc3c2c(=O)[nH]n3C2CCCCC2)cc1O (stereo not drawn) please.
result: 0.637

query: Also, CN(Cc1ccsc1)C(=O)CN1CCCC1Cn1cccn1 (stereo not drawn) please.
result: 2.08

query: Also, `Cc1nnc(N2CC[C@H](OCC3CC3)[C@@H](Cc3ccccc3)C2)s1` please.
result: 8.54

query: Also, COc1ccc(NC(C)C(=O)NCCc2cccs2)cc1F (stereo not drawn) please.
result: -49.8

query: Also, `O=C(N1CCOCC1)[C@@]12CCO[C@@H]1CCN(CC1CCCCC1)C2` please.
result: 2.35

query: Also, `Cc1ccc(C(=O)N2CCN(Cc3nc(C(C)C)no3)CC2)c(=O)[nH]1` please.
result: -5.78

query: Also, `CNc1nc2c(c(C(=O)N3CCCC3)n1)CN(Cc1nccn1C)CC2` please.
result: -8.14

query: Also, `COc1ncccc1C(=O)N1CCC(c2nnc(C3CC3)o2)CC1` please.
result: 11.3

query: Also, `O=C1CC2(CCN(CCO)CC2)CN1Cc1cc(F)cc(F)c1` please.
result: -9.77

query: Also, COc1ncccc1NC(=O)NC1CCOc2ccccc21 (stereo not drawn) please.
result: -3.28

query: Also, `Cc1csc(CNC(=O)NCCc2ccc3c(c2)OCCO3)n1` please.
result: -2.69

query: Also, c1ccc(-n2cc(CN3CCCC(Cn4cncn4)C3)nn2)cc1 (stereo not drawn) please.
result: 7.41

query: Also, `CCN(CC)C(=O)CCNc1cncc(-n2nc(C)cc2C)n1` please.
result: 3.1

query: Also, `Cc1cc(N2CCN(CC(=O)N(C)C)CC2)nc(-c2ccncc2)n1` please.
result: -6.29

query: Also, `CSCc1cccc(S(=O)(=O)NCCCO)c1` please.
result: 5.07

query: Also, O=C1CC(c2ccncc2)c2c(c(C(=O)O)cn2-c2ccc(F)cc2)N1 (stereo not drawn) please.
result: -34.9

query: Also, CC(=O)N(Cc1ncc(C)o1)C1CCN(Cc2noc(C)n2)C1 (stereo not drawn) please.
result: -5.5

query: Also, COCCN1CCC(N(Cc2noc(C3CC3)n2)C(C)=O)C1 (stereo not drawn) please.
result: -5

query: Also, CCN1CCOC(CNCc2ccccn2)C1 (stereo not drawn) please.
result: -15.7

query: Also, `CS(=O)(=O)c1ccc(OCCNCc2ccc(F)cc2F)cc1` please.
result: 1.54

query: Also, `O=C1[C@H]2CN(Cc3nccs3)C[C@H]2CN1c1ccsc1` please.
result: 8.27

* * *

Tgt: AMP-activated protein kinase, AMPK (Homo sapiens) (UniProt P54646+O43741+P54619+Q9UGJ0+Q9Y478+Q13131+Q9UGI9)
Test protocol: AMP-dependent Kinase enzyme assay. An in vitro enzyme assay that detects ADP turnover that is directly proportional to AMPK activity. This uses naive AMPK that is activated during the assay with MK-8722
Assay type: functional
Design: scale not given: direction of the effect not stated beside the values
Condition parameters: 30 µM
Give Percent Effect for every item shown.
Field: numeric (%). Do not append units.

query: Returns the measured Percent Effect for the input compound. Input: `Cc1ccc(CN(Cc2ccccn2)C2CC(C)(C)NC(C)(C)C2)s1`
result: 8.17

query: Also, Cc1cc(CN(Cc2cccs2)CC2CCCO2)no1 (centres undefined) please.
result: 10.8

query: Also, `CC[C@H](C)[C@H](NC(=O)c1ccccc1-n1cnnn1)C(=O)OC` please.
result: 6.42

query: Also, CCC1c2cccn2CCN1C(=O)c1ccc2nonc2c1 (centres undefined) please.
result: -3.32

query: Also, CCc1nsc(NC2CCCn3nc(COC)nc32)n1 (centres undefined) please.
result: -5.77

query: Also, `O=C(CC1CC1)N1CC[C@H]2[C@@H]1CCC(=O)N2c1cccnc1` please.
result: 7.09

query: Also, Cc1cnn(CC(C)NCc2ccc(OCc3ccncc3)cc2)c1 (centres undefined) please.
result: 4.3

query: Also, COc1ccc(CN(C)CC2(O)CCN(C(=O)c3cccn3C)C2)cc1 (centres undefined) please.
result: 5.12

query: Also, Cn1ncc2c1NC(=O)CC2c1ccc(Cl)cc1Cl (centres undefined) please.
result: 4.33

query: Also, `O=C(c1ccc(F)cc1)N1CCN2C[C@H](OCc3ccccn3)C[C@H]2C1` please.
result: 5.44

query: Also, `Cc1ccc(NC2CCN(C(=O)CCNS(C)(=O)=O)CC2)nn1` please.
result: -5.25

query: Also, COCCC(=O)N1CCC2(COCc3cnc(N4CCOCC4)nc32)C1 (centres undefined) please.
result: 18.4

query: Also, CC(C)n1ncc2c1NC(=O)CSC2C(C)(C)C (centres undefined) please.
result: -3.06

query: Also, `Cc1ccc(C(=O)NCCCNS(C)(=O)=O)cc1-n1cccc1` please.
result: 12.3

query: Also, CC(=O)c1cn(CC(=O)NC(C(=O)O)C(C)C)c2ccccc12 (centres undefined) please.
result: 1.25

query: Also, O=C(c1cccc2[nH]ncc12)N1CCCC1c1noc(C2CC2)n1 (centres undefined) please.
result: 1.95

query: Also, CCCC(C)CN1CCC(n2cc(CCCO)nn2)CC1 (centres undefined) please.
result: -2.5

query: Also, `Cc1nc(-c2ccccc2)sc1C(=O)NCCNc1ncccn1` please.
result: -5.12

query: Also, CCn1c(C)cc(C(=O)N2CCCC(c3nc(C)no3)C2)c1C (centres undefined) please.
result: 3.61

query: Also, Cn1cc(CC2CCN(C(=O)NCCc3cccc(O)c3)C2)cn1 (centres undefined) please.
result: 11.8

query: Also, `COc1ccc(NC(=O)CNc2ccc(Br)cc2F)cc1` please.
result: 9.89

query: Also, O=C1CC(N(C(=O)c2ccc3[nH]c4c(c3c2)CCCC4)C2CC2)C(=O)N1 (centres undefined) please.
result: -6.86

query: Also, COC(=O)C(c1cc(F)ccc1F)N(C)C(=O)c1cccnc1O (centres undefined) please.
result: 7.36

query: Also, `CNC(=O)c1cnc(/C=C/c2ccc(OC)c(O)c2)s1` please.
result: 32.5

query: Also, COCCN1CCN(CCS(=O)(=O)C(F)(F)F)CC1C (centres undefined) please.
result: -8.33

query: Also, CC(NC(=O)NCC1(c2ccc(F)cc2)CCC1)c1nncn1C (centres undefined) please.
result: 2.85

query: Also, COc1cccc(CCC(=O)N2CCCCC2Cn2cccn2)c1 (centres undefined) please.
result: 6.53

query: Also, `NC(=O)c1nc(COc2ccc3c(c2)OCO3)no1` please.
result: 10

query: Also, Cn1ccnc1CN1CCC2(COCCN(Cc3ccsc3)C2)C1 (centres undefined) please.
result: -5.28

query: Also, `O=c1[nH]c(CN(Cc2ccco2)C2CCCC2)nc2ccccc12` please.
result: 7.19

query: Also, CC(C)C(Sc1nnc(C2CC2)n1C1CC1)C(=O)NCc1cccnc1 (centres undefined) please.
result: -2.77

query: Also, `O=C(CCc1nc2cccnc2[nH]1)Nc1cccnc1` please.
result: -1.32

query: Also, `Cc1nnc2n1CCN(Cc1csc(CC(=O)N(C)C)n1)C2` please.
result: -6.55

query: Also, `CC(C)c1nn(C)c(Cl)c1CNCc1ccc2c(c1)OCCO2` please.
result: 2.72
